- assayExplanation: Selectivity index, ratio of EC50 for toxicity in human A549 cells to MIC50 for antifungal activity against Candida glabrata ATCC 2001
- Format: cell-based
- conditionsUsed: read-out: Selectivity Index
Here, each record is paired with measured selectivity ratio data.
propertyLabel: selectivity ratio

[[record]]
compound = "CCCC(O)(Cn1cncn1)c1ccc(Cl)cc1Cl (configuration not stated)"
propertylabel = "selectivity ratio"
reportedresult = 8

[[record]]
compound = "CCCCCC(O)(Cn1cncn1)c1ccc(F)cc1 (configuration not stated)"
propertylabel = "selectivity ratio"
reportedresult = 4

[[record]]
compound = "CCCCCCC(O)(Cn1cncn1)c1ccc(F)cc1F (configuration not stated)"
propertylabel = "selectivity ratio"
reportedresult = 9

[[record]]
compound = "CCCCCC(O)(Cn1cncn1)c1ccc(Cl)cc1 (configuration not stated)"
propertylabel = "selectivity ratio"
reportedresult = 8

[[record]]
compound = "CC[C@@H]([C@H](C)O)n1ncn(-c2ccc(N3CCN(c4ccc(OC[C@@H]5CO[C@@](Cn6cncn6)(c6ccc(F)cc6F)C5)cc4)CC3)cc2)c1=O"
propertylabel = "selectivity ratio"
reportedresult = 308

[[record]]
compound = "CCCCCCC(O)(Cn1cncn1)c1ccccc1Cl (configuration not stated)"
propertylabel = "selectivity ratio"
reportedresult = 32

[[record]]
compound = "CCCCC(O)(Cn1cncn1)c1ccc(F)cc1F (configuration not stated)"
propertylabel = "selectivity ratio"
reportedresult = 1

[[record]]
compound = "CCCCCCC(O)(Cn1cncn1)c1ccc(F)cc1 (configuration not stated)"
propertylabel = "selectivity ratio"
reportedresult = 4

[[record]]
compound = "CCCCCC(O)(Cn1cncn1)c1ccc(Cl)cc1Cl (configuration not stated)"
propertylabel = "selectivity ratio"
reportedresult = 17

[[record]]
compound = "CCCCCC(O)(Cn1cncn1)c1ccccc1F (configuration not stated)"
propertylabel = "selectivity ratio"
reportedresult = 38

[[record]]
compound = "CCCCCC(O)(Cn1cncn1)c1ccc(F)cc1F (configuration not stated)"
propertylabel = "selectivity ratio"
reportedresult = 4

[[record]]
compound = "CCCCCCC(O)(Cn1cncn1)c1ccc(Cl)cc1Cl (configuration not stated)"
propertylabel = "selectivity ratio"
reportedresult = 10

[[record]]
compound = "CCCCCC(O)(Cn1cncn1)c1ccccc1Cl (configuration not stated)"
propertylabel = "selectivity ratio"
reportedresult = 32

[[record]]
compound = "CCCCC(O)(Cn1cncn1)c1ccc(Cl)cc1Cl (configuration not stated)"
propertylabel = "selectivity ratio"
reportedresult = 8

[[record]]
compound = "CCCCCCC(O)(Cn1cncn1)c1ccc(Cl)cc1 (configuration not stated)"
propertylabel = "selectivity ratio"
reportedresult = 1

[[record]]
compound = "CCCCCCCCC(O)(Cn1cncn1)c1ccc(F)cc1F (configuration not stated)"
propertylabel = "selectivity ratio"
reportedresult = 6

[[record]]
compound = "CCCCCCC(O)(Cn1cncn1)c1ccccc1F (configuration not stated)"
propertylabel = "selectivity ratio"
reportedresult = 32


---

- assayExplanation: Selectivity index, ratio of EC50 for toxicity in human A549 cells to MIC100 for antifungal activity against Candida albicans ATCC 10231
- Assay type: cell-based
- conditionsUsed: read-out: Selectivity Index
Class TRUE: selectivity ratio at least 20. Class FALSE: selectivity ratio below 20.

[[record]]
molecule = "CCCCC(O)(Cn1cncn1)c1ccc(Cl)cc1Cl (stereo unspecified)"
category = "TRUE"

[[record]]
molecule = "CCCCCCC(O)(Cn1cncn1)c1ccc(Cl)cc1 (stereo unspecified)"
category = "FALSE"

[[record]]
molecule = "CCCCCCC(O)(Cn1cncn1)c1ccccc1F (stereo unspecified)"
category = "FALSE"

[[record]]
molecule = "CCCCCCC(O)(Cn1cncn1)c1ccc(F)cc1F (stereo unspecified)"
category = "FALSE"

[[record]]
molecule = "CCCCCCC(O)(Cn1cncn1)c1ccc(Cl)cc1Cl (stereo unspecified)"
category = "TRUE"

[[record]]
molecule = "CCCCCCCCC(O)(Cn1cncn1)c1ccc(F)cc1F (stereo unspecified)"
category = "FALSE"

[[record]]
molecule = "CCCCCC(O)(Cn1cncn1)c1ccc(F)cc1 (stereo unspecified)"
category = "FALSE"

[[record]]
molecule = "CCCCCC(O)(Cn1cncn1)c1ccccc1F (stereo unspecified)"
category = "FALSE"

[[record]]
molecule = "CCCCCC(O)(Cn1cncn1)c1ccc(F)cc1F (stereo unspecified)"
category = "FALSE"

[[record]]
molecule = "CCCCCC(O)(Cn1cncn1)c1ccc(Cl)cc1Cl (stereo unspecified)"
category = "TRUE"

[[record]]
molecule = "CCCCCC(O)(Cn1cncn1)c1ccc(Cl)cc1 (stereo unspecified)"
category = "FALSE"

[[record]]
molecule = "CCCCCCC(O)(Cn1cncn1)c1ccc(F)cc1 (stereo unspecified)"
category = "FALSE"

[[record]]
molecule = "CCCC(O)(Cn1cncn1)c1ccc(Cl)cc1Cl (stereo unspecified)"
category = "TRUE"

[[record]]
molecule = "CCCCCCC(O)(Cn1cncn1)c1ccccc1Cl (stereo unspecified)"
category = "FALSE"

[[record]]
molecule = "CCCCC(O)(Cn1cncn1)c1ccc(F)cc1F (stereo unspecified)"
category = "FALSE"

[[record]]
molecule = "CCCCCC(O)(Cn1cncn1)c1ccccc1Cl (stereo unspecified)"
category = "FALSE"


---

- assayExplanation: Selectivity index, ratio of EC50 for toxicity in human A549 cells to MIC for antifungal activity against Candida parapsilosis ATCC 22019
propertyLabel: selectivity ratio

[[record]]
compound = "CCCCCC(O)(Cn1cncn1)c1ccc(F)cc1 (stereo not drawn)"
reportedresult = 65

[[record]]
compound = "CCCCC(O)(Cn1cncn1)c1ccc(Cl)cc1Cl (stereo not drawn) [HEXACONAZOLE]"
reportedresult = 1040

[[record]]
compound = "CCCCCC(O)(Cn1cncn1)c1ccc(F)cc1F (stereo not drawn)"
reportedresult = 1040


---

- assayExplanation: Selectivity index, ratio of EC50 for toxicity in human BEAS2B cells to MIC50 for antifungal activity against ITC and FLC-susceptible Candida albicans ATCC MYA-2876
- Assay type: cell-based
- conditionsUsed: BEAS-2B cells, read-out: Selectivity Index
propertyLabel: selectivity ratio

[[record]]
compound = "CCCCCCC(O)(Cn1cncn1)c1ccc(Cl)cc1 (centres undefined)"
propertylabel = "selectivity ratio"
reportedresult = 4

[[record]]
compound = "CCCCCCC(O)(Cn1cncn1)c1ccccc1Cl (centres undefined)"
propertylabel = "selectivity ratio"
reportedresult = 32

[[record]]
compound = "CCCCCC(O)(Cn1cncn1)c1ccc(F)cc1F (centres undefined)"
propertylabel = "selectivity ratio"
reportedresult = 4

[[record]]
compound = "CCCCCC(O)(Cn1cncn1)c1ccccc1Cl (centres undefined)"
propertylabel = "selectivity ratio"
reportedresult = 32


---

- assayExplanation: Selectivity index, ratio of […] for toxicity in human A549 cells to MIC50 for antifungal activity against Aspergillus flavus ATCC MYA-3631
- Type: cell-based
- conditionsUsed: read-out: Selectivity Index
Here, each record is paired with measured selectivity ratio data.
propertyLabel: selectivity ratio

[[record]]
compound = "CCCCCCC(O)(Cn1cncn1)c1ccc(F)cc1F (centres undefined)"
reportedresult = 2

[[record]]
compound = "CCCCCC(O)(Cn1cncn1)c1ccc(Cl)cc1 (centres undefined)"
reportedresult = 1

[[record]]
compound = "CCCCC(O)(Cn1cncn1)c1ccc(F)cc1F (centres undefined)"
reportedresult = 2

[[record]]
compound = "CCCCCCC(O)(Cn1cncn1)c1ccccc1F (centres undefined)"
reportedresult = "1 to 2"

[[record]]
compound = "CCCCCC(O)(Cn1cncn1)c1ccc(F)cc1F (centres undefined)"
reportedresult = 2

[[record]]
compound = "CCCC(O)(Cn1cncn1)c1ccc(Cl)cc1Cl (centres undefined)"
reportedresult = 2

[[record]]
compound = "CCCCCC(O)(Cn1cncn1)c1ccccc1Cl (centres undefined)"
reportedresult = 1

[[record]]
compound = "CCCCCCCCC(O)(Cn1cncn1)c1ccc(F)cc1F (centres undefined)"
reportedresult = 0.4

[[record]]
compound = "CCCCCC(O)(Cn1cncn1)c1ccc(Cl)cc1Cl (centres undefined)"
reportedresult = 8


---

- assayExplanation: Selectivity index, ratio of EC50 for toxicity in human A549 cells to MIC50 for antifungal activity against ITC and FLC-resistant Candida albicans ATCC MYA-90819
- Assay type: cell-based
- conditionsUsed: read-out: Selectivity Index
Here, each record is paired with measured selectivity ratio data.
propertyLabel: selectivity ratio

[[record]]
compound = "CCCCCCC(O)(Cn1cncn1)c1ccc(Cl)cc1 (stereo not given)"
reportedresult = 10

[[record]]
compound = "CCCCCC(O)(Cn1cncn1)c1ccccc1Cl (stereo not given)"
reportedresult = 65

[[record]]
compound = "CCCCCCC(O)(Cn1cncn1)c1ccc(F)cc1F (stereo not given)"
reportedresult = 18

[[record]]
compound = "CCCCCCC(O)(Cn1cncn1)c1ccc(F)cc1 (stereo not given)"
reportedresult = 32

[[record]]
compound = "CC[C@@H]([C@H](C)O)n1ncn(-c2ccc(N3CCN(c4ccc(OC[C@@H]5CO[C@@](Cn6cncn6)(c6ccc(F)cc6F)C5)cc4)CC3)cc2)c1=O"
reportedresult = 1

[[record]]
compound = "CCCCCC(O)(Cn1cncn1)c1ccc(F)cc1 (stereo not given)"
reportedresult = 32

[[record]]
compound = "CCCCCC(O)(Cn1cncn1)c1ccc(Cl)cc1 (stereo not given)"
reportedresult = 16

[[record]]
compound = "CCCCCCC(O)(Cn1cncn1)c1ccc(Cl)cc1Cl (stereo not given)"
reportedresult = 10

[[record]]
compound = "CCCC(O)(Cn1cncn1)c1ccc(Cl)cc1Cl (stereo not given)"
reportedresult = 8

[[record]]
compound = "CCCCCCC(O)(Cn1cncn1)c1ccccc1Cl (stereo not given)"
reportedresult = 16

